- measurement protocol: Apparent permeability across basolateral to apical side in human Caco2 cells at 1 uM after 2 hrs by LC-MS method
- Type: ADME, cell-based
- particulars: Caco-2
Recorded measurements of Papp B→A at 2 h, 1 µM, one per entry

Here's what some known entries look like.
{"smiles code": "COc1ccccc1Oc1cc([N+](=O)[O-])ccc1NS(C)(=O)=O", "assay result": "8.5 ×10⁻⁶ cm/s"}
{"smiles code": "COc1cccc(Oc2cc([N+](=O)[O-])ccc2NS(C)(=O)=O)c1", "assay result": "40.4 ×10⁻⁶ cm/s"}

Exam item: Find the recorded Papp B→A at 2 h, 1 µM belonging to COc1ccc(Oc2cc([N+](=O)[O-])ccc2NS(C)(=O)=O)cc1 and report it.
Marked response: 6.8 ×10⁻⁶ cm/s
